The measurements presented in this section are drawn from patent US20160297763A1.

- target: PB2 cap binding domain (CBD) (Influenza A virus, UniProt Q9Q0V1)
- Sequence (Q9Q0V1 318-483 limits assumed): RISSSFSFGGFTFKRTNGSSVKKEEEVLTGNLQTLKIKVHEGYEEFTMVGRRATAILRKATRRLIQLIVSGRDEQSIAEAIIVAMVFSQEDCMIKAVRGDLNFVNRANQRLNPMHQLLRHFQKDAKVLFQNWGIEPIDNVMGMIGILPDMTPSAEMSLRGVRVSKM
readout.label: Kd (µM)
The reply should be a number in µM, with the unit left off.

Some solved cases for reference:
- Cc1c(-c2ccccc2)sc2nc(NCCO)[nH]c(=O)c12: 6.8
- COc1cc(-c2sc3nc(N)[nH]c(=O)c3c2C)ccc1Cl: 1.1

Q: Bench note: what Kd did `Cc1c(-c2cccc(C(N)=O)c2)sc2nc(N)[nH]c(=O)c12` show?
Result: 5.3

Q: Follow-up item: `Cc1c(-c2ccc(F)cc2F)sc2nc(N)[nH]c(=O)c12`
Result: 3.8

Q: Follow-up item: `Nc1nc2sc(-c3ccccc3)c(Cl)c2c(=O)[nH]1`
Result: 1.8

Q: Follow-up item: `Cc1c(-c2ccccc2)sc2nc(NCCCO)[nH]c(=O)c12`
Result: 4.2

Q: Follow-up item: `Cc1c(-c2ccnc(C(F)(F)F)c2)sc2nc(N)[nH]c(=O)c12`
Result: 12

Q: Follow-up item: `Nc1nc2sc(-c3ccccc3)c(Br)c2c(=O)[nH]1`
Result: 0.66

Q: Follow-up item: `Cc1c(-c2cccc(C#N)c2)sc2nc(N)[nH]c(=O)c12`
Result: 2

Q: Follow-up item: `Cc1ccccc1-c1sc2nc(N)[nH]c(=O)c2c1C`
Result: 11

Q: Follow-up item: CC1=C(c2cccc(F)c2)SC2N=C(N)NC(=O)C12 (centres unmarked)
Result: 8

Q: Follow-up item: `Cc1c(-c2cc(CN(C)C)ccc2F)sc2nc(N)[nH]c(=O)c12`
Result: 57

Q: Follow-up item: `Cc1c(-c2ccc(F)cc2)sc2nc(N)[nH]c(=O)c12`
Result: 1.1

Q: Follow-up item: `Cc1c(C2=CCNCC2)sc2nc(N)[nH]c(=O)c12`
Result: 190

Q: Follow-up item: `Cc1c(-c2ccc(Cl)cc2)sc2nc(N)[nH]c(=O)c12`
Result: 0.27

Q: Follow-up item: `Cc1c(-c2ccc(F)c(C#N)c2)sc2nc(N)[nH]c(=O)c12`
Result: 1.1

Q: Follow-up item: `Cc1c(-c2ccc(F)nc2F)sc2nc(N)[nH]c(=O)c12`
Result: 70

Q: Follow-up item: `Cc1c(-c2ccc(Cl)c(C(=O)N(C)C)c2)sc2nc(N)[nH]c(=O)c12`
Result: 6.4

Q: Follow-up item: `Cc1ccc(-c2sc3nc(N)[nH]c(=O)c3c2C)cc1`
Result: 2

Q: Follow-up item: `Cc1c(-c2ccc(Cl)c(O)c2)sc2nc(N)[nH]c(=O)c12`
Result: 2.4
